Molecular target: Cytochrome P450 2C19 (Homo sapiens) (UniProt P33261)
Sequence (P33261 whole entry, looked up): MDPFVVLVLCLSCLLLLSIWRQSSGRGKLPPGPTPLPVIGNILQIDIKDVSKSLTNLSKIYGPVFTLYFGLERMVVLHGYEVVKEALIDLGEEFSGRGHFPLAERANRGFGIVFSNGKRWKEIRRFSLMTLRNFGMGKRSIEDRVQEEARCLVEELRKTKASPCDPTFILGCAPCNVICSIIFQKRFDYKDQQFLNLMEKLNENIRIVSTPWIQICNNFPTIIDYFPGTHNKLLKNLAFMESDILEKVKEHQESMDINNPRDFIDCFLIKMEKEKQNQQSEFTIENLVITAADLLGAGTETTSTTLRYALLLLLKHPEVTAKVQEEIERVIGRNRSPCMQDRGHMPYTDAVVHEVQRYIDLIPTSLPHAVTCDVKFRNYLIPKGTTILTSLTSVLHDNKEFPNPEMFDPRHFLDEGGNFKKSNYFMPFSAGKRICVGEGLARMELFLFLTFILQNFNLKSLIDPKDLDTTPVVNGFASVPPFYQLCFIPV
Assay: Cytochrome panel assay with activity outcomes
Conditions: recombinant CYP, pro-luciferin dealkylation, luminescence, p450-cyp2c19; series mostly up to 57.1 µM
Protocol: The P450 gene superfamily is involved in the metabolism and clearance of xenobiotics. This assay used various human CYP P450 isozymes to measure the dealkylation of various pro-luciferin substrates to luciferin. The luciferin is then measured by luminescence after the addition of a luciferase detection reagent. […] Inhibitors and some substrates limit the production of luciferin, and decrease measured luminescence. […] 8, Detection, 1 sec, ViewLux luminescent read […]
Out of some 16,000 compounds screened, about 5,800 (36%) were called active. Not shown: some 23% with an inconclusive outcome. The list shows a part of the results.
QUANTITY_NAME: AC50

Use these answered entries as a reference point.
COMPOUND | RESULT
Oc1ccc2ccccc2c1Cc1c(O)ccc2ccccc12 | 0.316 µM (active)
COc1ccc(-n2c(=O)c(-c3cc(F)cc(F)c3)nc3cnc(N4CCNCC4)nc32)cc1 | inactive
Oc1ccc(Cn2cc[nH]c2=S)cc1 | inactive
O=C1CCN(S(=O)(=O)c2ccccc2)N1 | 17.8 µM (active)
CCC/C=C(\CCC)C(NP(=O)(c1ccccc1)c1ccccc1)c1ccc(-c2ccccc2)cc1 (stereo not drawn) | 7.94 µM (active)

Record O=S(=O)(c1ccccc1)N1CCC2(CC1)CN(C(c1ccccc1)c1ccccc1)C2 / Cytochrome P450 2C19 (Homo sapiens) (UniProt P33261), AC50 recorded as inactive

Hey, Cytochrome P450 2C19 (Homo sapiens) (UniProt P33261) data for CC(C)(C)c1ccc(O)c(CN(Cc2c(O)ccc3ccccc23)C2CCCCC2)c1 : AC50 came out at 2 µM (active)

Per the reported Cytochrome P450 2C19 (Homo sapiens) (UniProt P33261) data, CCOc1cc(/C=N/NC(=O)COc2cccc(C)c2)ccc1OC(=O)c1cccs1 has AC50 of 8.91 µM (active)

Taken from PubChem BioAssay AID1851.
